Tested on: SW1353
assay.info: Inhibition of IL1beta-stimulated MMP13 secretion in human SW1353 cells incubated for 30 mins prior to IL1beta-stimulation measured after 24 hrs by ELISA
Type: functional, cell-based
measured.endpoint: IC50 (µM)
Numbers only, in µM.

Query string: Looking for the measured IC50 of O=C(c1ccc(-c2ccc(Cl)cc2)o1)N(Cc1ccccn1)c1ccc(N2CCNCC2)cc1 , can you help?
Result string: 5.7

###

Tested on: THP-1
assay.info: Antiinflammatory activity in human THP1 cells assessed as inhibition of LPS-induced TNFalpha production incubated for 30 mins prior to LPS-challenge measured after 3 hrs by ELISA
Type: functional, cell-based
measured.endpoint: pIC50
Answers are plain numbers, as −log10 of the molar value.

Query string: Looking for the measured pIC50 of O=C(c1ccc(-c2ccc(Cl)cc2)o1)N(Cc1ccccn1)c1ccc(N2CCNCC2)cc1 , can you help?
Result string: 5.36
